These measurements were taken from ChEMBL document CHEMBL1782020.

5-hydroxytryptamine receptor 6 (Homo sapiens, UniProt P50406): reported Ki for various molecules.
Sequence (P50406 whole entry): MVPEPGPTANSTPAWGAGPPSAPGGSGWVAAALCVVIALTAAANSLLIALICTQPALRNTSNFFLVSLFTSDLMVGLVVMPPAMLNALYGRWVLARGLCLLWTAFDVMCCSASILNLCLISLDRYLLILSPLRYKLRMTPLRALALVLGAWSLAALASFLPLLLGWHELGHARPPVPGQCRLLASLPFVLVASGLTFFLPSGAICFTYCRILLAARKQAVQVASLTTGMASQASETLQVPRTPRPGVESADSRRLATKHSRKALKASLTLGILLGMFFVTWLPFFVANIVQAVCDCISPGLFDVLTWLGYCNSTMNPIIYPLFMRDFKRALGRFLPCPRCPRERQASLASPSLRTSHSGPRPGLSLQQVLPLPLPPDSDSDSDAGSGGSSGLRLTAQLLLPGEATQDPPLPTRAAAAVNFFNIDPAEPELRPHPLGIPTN
Entry format: amount then unit.

# annotated cases, reported Ki shown
* FC(F)(F)c1ccccc1Sc1ccc2c(c1)N1CCNCC1C2 (stereo not given) | 330 nM
* COc1ccccc1Sc1ccc2c(c1)N1CCNCC1C2 (stereo not given) | 23 nM
* O=C1NCCN1CCN1CCC(c2cn(-c3ccc(F)cc3)c3ccc(Cl)cc23)CC1 | 5 nM
* Cc1cccc(Sc2ccc3c(c2)N2CCNCC2C3)c1 (stereo not given) | 50 nM

query: Report the value of Ki obtained on 5-hydroxytryptamine receptor 6 (Homo sapiens, UniProt P50406) for FC(F)(F)c1ccc(Sc2ccc3c(c2)N2CCNCC2C3)cc1 (stereo not given) .
result: 760 nM
